# system name: KRAS(G12D) (Homo sapiens, UniProt P01116, G12D)
# Construct: endogenous in cells; host or cells: SW1990
# Sequence (P01116 1-188 isoform P01116-2 G12D): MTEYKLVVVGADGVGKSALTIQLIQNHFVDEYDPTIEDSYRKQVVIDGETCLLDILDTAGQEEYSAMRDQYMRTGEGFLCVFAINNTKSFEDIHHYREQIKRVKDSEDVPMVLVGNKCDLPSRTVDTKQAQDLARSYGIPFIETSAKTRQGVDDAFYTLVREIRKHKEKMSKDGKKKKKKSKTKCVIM
# test method notes: SW1990 WB assay (degradation DC50, Dmax)
# Format: cell-based
# experimental parameters: Western blot, SW1990 cells
Dmax overview

# count of solved cases: 4
Lookup result for C#Cc1c(F)ccc2cc(O)cc(-c3ncc4c(N5CC6CCC(C5)N6)nc(OCC5(CN6CCC(C7CCN(c8ccc9c(c8)CN(C8CCC(=O)NC8=O)C9=O)CC7)CC6)CC5)nc4c3F)c12 (centres unmarked) ; measured Dmax: 10 to 50%

The molecule listed as C#Cc1cccc2cc(O)cc(-c3ncc4c(N5CC6CCC(C5)N6)nc(OCC5(CN6CCN(CC7CCN(c8ccc9c(c8)C(=O)N(C8CCC(=O)NC8=O)C9=O)CC7)CC6)CC5)nc4c3F)c12 (centres unmarked) has a reported Dmax of > 50%

Looking up C#Cc1cccc2cc(O)cc(-c3ncc4c(N5CC6CCC(C5)N6)nc(OCC5(CN(C)CC6CCN(c7ccc8c(c7)CN(C7CCC(=O)NC7=O)C8=O)CC6)CC5)nc4c3F)c12 (centres unmarked) , I see its Dmax listed as > 50%

The value of Dmax measured for the molecule C#Cc1cccc2cc(O)cc(-c3ncc4c(N5CC6CCC(C5)N6)nc(OCC5(CN6CCN(CC7CCN(c8ccc9c(c8)C(=O)N(C8CCC(=O)NC8=O)C9)CC7)CC6)CC5)nc4c3F)c12 (centres unmarked) turned out to be > 50%

Let's switch to this molecule now.
Quick note, Dmax for C=CC(=O)N1CCN(c2nc(OCC3(CN4CCN(CC5CCN(c6ccc7c(c6)CN(C6CCC(=O)NC6=O)C7=O)CC5)CC4)CC3)nc3c2CCN(c2cccc4cccc(Cl)c24)C3)C[C@@H]1CC#N (some centres unmarked) landed at < 10%

* * *

# system name: KRAS(G12D)/SOS1 (Homo sapiens, UniProt P01116, G12D)
# Sequence (P01116 1-188 isoform P01116-2 G12D): as above
# test method notes: KRAS(G12D)/SOS1 homogeneous time-resolved fluorescence (HTRF) assay
# experimental parameters: absence of GTP, 4° C. for 3 hr
Counter-ions that a name gives are not always drawn.
# IC50 values compiled below

The recorded IC50 for entry C#Cc1cccc2cccc(-c3ncc4c(N5CC6CCC(C5)N6)nc(OC[C@H]5CC[C@@H](CN6CCN(CC7CCC(Nc8ccc9c(c8)C(=O)N(C8CCC(=O)NC8=O)C9=O)CC7)CC6)N5C)nc4c3F)c12 (some centres unmarked) equals < 100 nM

Reported IC50 ( Cc1ncsc1-c1ccc(CNC(=O)[C@@H]2C[C@@H](O)CN2C(=O)[C@@H](NC(=O)C2CCN([C@H]3C[C@@H](COc4nc(N5CC6CCC(C5)N6)c5cnc(-c6cccc7ccccc67)c(F)c5n4)N(C)C3)CC2)C(C)(C)C)cc1 [Compound 23, formate] ) = > 1000 nM

Next:
The molecule C#Cc1cccc2cc(O)cc(-c3ncc4c(N5CC6CCC(C5)N6)nc(OCC5(CN6CCN(CC7CCN(c8ccc9c(c8)CN(C)C9=O)CC7)CC6)CC5)nc4c3F)c12 showed IC50 equal to < 100 nM

Field IC50 (entry C#Cc1cccc2cccc(-c3ncc4c(N5CC6CCC(C5)N6)nc(OCCN5CCN(C(=O)C6CCN(c7ccc8c(c7)C(=O)N(C7CCC(=O)NC7=O)C8=O)CC6)CC5)nc4c3F)c12 (centres unmarked) [Compound 4, formate] ) reads > 1000 nM

// field: IC50; key: C#Cc1cccc2cc(O)cc(-c3ncc4c(N5CC6CCC(C5)N6)nc(OCC5(CN6CCN(Cc7ccc8c(c7)CN(C7CCC(=O)NC7=O)C8=O)CC6)CC5)nc4c3F)c12 (centres unmarked) ; value = < 100 nM

* * *

# system name: KRAS(G12D) (Homo sapiens, UniProt P01116, G12D)
# Construct: endogenous in cells; host or cells: SW1990
# test method notes: SW1990 WB assay (degradation DC50, Dmax)
# Type: cell-based
# experimental parameters: Western blot, SW1990 cells
Dmax values for the compounds below.

A selection of reference data follows.
Summary for this compound, C#Cc1cccc2cc(O)cc(-c3nc(OC)c4c(N5CC6CCC(C5)N6)nc(OCC5(CN6CCN(CC7CCN(c8ccc9c(c8)CN(C8CCC(=O)NC8=O)C9=O)CC7)CC6)CC5)nc4c3F)c12 (centres unmarked) : Dmax is > 50%

According to the records, this compound C#Cc1c(F)ccc2cc(O)cc(-c3nc(O)c4c(N5CC6CCC(C5)N6)nc(OCC5(CN6CCN(CC7CCN(c8ccc9c(c8)CN(C8CCC(=O)NC8=O)C9=O)CC7)CC6)CC5)nc4c3F)c12 (centres unmarked) displays Dmax of < 10%

Continuing:
C#Cc1cccc2cc(O)cc(-c3ncc4c(N5CC6CCC(C5)N6)nc(OCC5(CN6CCN(CC7CCN(c8ccc9c(c8)CN(C)C9=O)CC7)CC6)CC5)nc4c3F)c12 has a reported Dmax of 10 to 50%

// recorded Dmax for C#Cc1c(F)ccc2cc(O)cc(-c3nc(OC)c4c(N5CC6CCC(C5)N6)nc(OCC5(CN6CCN(CC7CCN(c8ccc9c(c8)CN(C8CCC(=O)NC8=O)C9=O)CC7)CC6)CC5)nc4c3F)c12 (centres unmarked) : 10 to 50%

Quick note, Dmax for C#Cc1cccc2cc(O)cc(-c3ncc4c(N5CC6CCC(C5)N6)nc(OCC5(CN6CCC(C(=O)N7CCN(c8ccc9c(c8)CN(C8CCC(=O)NC8=O)C9=O)CC7)CC6)CC5)nc4c3F)c12 (centres unmarked) landed at > 50%

* * *

# system name: KRAS(G12D)/SOS1 (Homo sapiens, UniProt P01116, G12D)
# Construct: purchased Cisbio 63ADK000CB16PEG
# test method notes: KRAS(G12D)/SOS1 homogeneous time-resolved fluorescence (HTRF) assay
# Type: binding
# experimental parameters: absence of GTP, 4° C. for 3 hr
Where a name gives a salt, the structure may show the parent alone.
measurement label: IC50

Log: KRAS(G12D)/SOS1 (Homo sapiens, UniProt P01116, G12D), compound C#Cc1c(F)ccc2cc(O)cc(-c3ncc4c(N5CC6CCC(C5)N6)nc(OCC5(CN6CCN(CC7CN(c8ccc9c(c8)CN(C8CCC(=O)NC8=O)C9=O)C7)CC6)CC5)nc4c3F)c12 (centres unmarked) [Compound 103] , IC50 = < 100 nM

Lab note: compound C#Cc1cccc2cccc(-c3ncc4c(N5CC6CCC(C5)N6)nc(OC[C@@H]5C[C@H](N6CCN(CC7CCN(c8cccc9c8C(=O)N(C8CCC(=O)NC8=O)C9=O)CC7)CC6)CN5C)nc4c3F)c12 (some centres unmarked) [Compound 6, hydrochloride] tested on KRAS(G12D)/SOS1 (Homo sapiens, UniProt P01116, G12D); recorded IC50 was < 100 nM

Reported IC50 (KRAS(G12D)/SOS1 (Homo sapiens, UniProt P01116, G12D)) for entry C#Cc1cccc2cccc(-c3ncc4c(N5CC6CCC(C5)N6)nc(OC[C@@H]5CC[C@H](CN6CCN(CC7CCN(c8ccc9c(c8)C(=O)N(C8CCC(=O)NC8=O)C9=O)CC7)CC6)N5C)nc4c3F)c12 (some centres unmarked) [Compound 13, hydrochloride] is < 100 nM

Form field, IC50 with KRAS(G12D)/SOS1 (Homo sapiens, UniProt P01116, G12D), item COc1cc(-c2ncc3c(N4CC5CCC(C4)N5)nc(OCC4(CN5CCN(CC6CCN(c7ccc8c(c7)CN(C7CCC(=O)NC7=O)C8=O)CC6)CC5)CC4)nc3c2F)c2ccccc2c1 (centres unmarked) [Compound 70] : > 1000 nM

Record C#Cc1cccc2cccc(-c3ncc4c(N5CC6CCC(C5)N6)nc(OCCC5CCN(CC6CCN(c7cccc8c7C(=O)N(C7CCC(=O)NC7=O)C8=O)CC6)CC5)nc4c3F)c12 (centres unmarked) [Compound 3, hydrochloride] / KRAS(G12D)/SOS1 (Homo sapiens, UniProt P01116, G12D), IC50 recorded as < 100 nM

* * *

# system name: KRAS(G12D) (Homo sapiens, UniProt P01116, G12D)
# Construct: endogenous in cells; host or cells: SW1990
# test method notes: SW1990 WB assay (degradation DC50, Dmax)
# Type: cell-based
# experimental parameters: Western blot, SW1990 cells
measurement label: DC50

Just so you know, measured DC50 for C=CC(=O)N1CCN(c2nc(OCC3(CN4CCN(CC5CCN(c6ccc7c(c6)CN(C6CCC(=O)NC6=O)C7=O)CC5)CC4)CC3)nc3c2CCN(c2cccc4cccc(Cl)c24)C3)C[C@@H]1CC#N (stereo partly shown) came out at > 1000 nM

Input C#Cc1cccc2cc(O)cc(-c3ncc4c(N5CC6CCC(C5)N6)nc(OCC5(CN6CCN(CC7CCN(CCC(=O)N[C@@H](C(=O)N8C[C@@H](O)C[C@@H]8C(=O)NCc8ccc(-c9scnc9C)cc8)C(C)(C)C)CC7)CC6)CC5)nc4c3F)c12 . Output DC50: > 1000 nM

Further cases:
compound C#Cc1c(F)ccc2cc(O)cc(-c3nc(OC)c4c(N5CC6CCC(C5)N6)nc(OCC5(CN6CCN(C7CCN(c8ccc9c(c8)CN(C8CCC(=O)NC8=O)C9=O)CC7)CC6)CC5)nc4c3F)c12 (stereo not shown) , DC50 observed: < 100 nM

Entry C#Cc1c(F)ccc2cc(O)cc(-c3ncc4c(N5CC6CCC(C5)N6)nc(OCC5(CN6CCC(CN7CCC(c8ccc9c(c8)CN(C8CCC(=O)NC8=O)C9=O)CC7)CC6)CC5)nc4c3F)c12 (stereo not shown) ; DC50 = < 100 nM
